The values you see were collected from ChEMBL document CHEMBL1201861.

The following compounds are listed with their measured IC50 values.
Test system: CAL-54;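 note: growth inhibition of CAL-54 cells, read out by a viability measurement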
Assay: cells
Assay type: functional, cell-based, Homo sapiens
Conditions: Homo sapiens, CAL-54
Description: SANGER: Inhibition of human CAL-54 cell growth in a cell viability assay.
Property Label: IC50 (µM)

| Compound Structure | Property Label | Operator Symbol | Reported Value |
| --- | --- | --- | --- |
| O=C1N=C(NCc2cccs2)S/C1=C\c1ccc2ncccc2c1 | IC50 | > | 5 |
| Nc1ccn([C@@H]2O[C@H](CO)[C@@H](O)[C@@H]2O)c(=O)n1 | IC50 | = | 0.94 |
| O=C(NOCC1CC1)c1ccc(F)c(F)c1Nc1ccc(I)cc1Cl | IC50 | = | 5.03 |
| COc1ccc(C2=N[C@@H](c3ccc(Cl)cc3)[C@@H](c3ccc(Cl)cc3)N2C(=O)N2CCNC(=O)C2)c(OC(C)C)c1 | IC50 | = | 4.53 |
| CN(c1ncccc1CNc1nc(Nc2ccc3c(c2)CC(=O)N3)ncc1C(F)(F)F)S(C)(=O)=O | IC50 | > | 2.56 |
| CC(=O)O[C@@H]1[C@@H](OC(C)=O)[C@@H](O)[C@H](Oc2c(-c3ccc(O)cc3)oc3cc(O)cc(O)c3c2=O)O[C@H]1C | IC50 | > | 10 |
